B1: Gamma-crystallin D, residues 90 to 170; numbered along this chain, P07320 (parent)
chain: IRLYEREDYRGQMIEFTEDCSCLQDRFRFNEIHSLNVLEGSWVLYELSNYRGRQYLLMPGDYRRYQDWGATNARVGSLRRV

Variants of: B1
assay-protocol: abundance fitness (aPCA) (normalised: wild type 0, dead -1); higher = more abundant; growth selection in yeast, the domain comes from the species named
measurement-conditions: Homo sapiens
Record Criterion met whenever abundance fitness is at -0.02 or higher; record Criterion not met when lower.

Reference set, count: 3
V43G
Criterion not met
G40Y
Criterion not met
D8I
Criterion not met

Would you say Y9C shows abundance fitness at minimum -0.02? Criterion met

Would you say D8A shows abundance fitness at minimum -0.02? Criterion not met

Would you say L47F shows abundance fitness at minimum -0.02? Criterion met
